Recorded values, source patent US20090069320A1.

- systemTested: mGluR5 receptor (Sus scrofa, UniProt I3LUI7)
- Construct: 450 μg of protein from brain homogenate with 5 nM ^3[H]-MPEP; from tissue; host or cells: pig brain halves without medulla, cerebellum and pons
- Sequence (I3LUI7 19-1212): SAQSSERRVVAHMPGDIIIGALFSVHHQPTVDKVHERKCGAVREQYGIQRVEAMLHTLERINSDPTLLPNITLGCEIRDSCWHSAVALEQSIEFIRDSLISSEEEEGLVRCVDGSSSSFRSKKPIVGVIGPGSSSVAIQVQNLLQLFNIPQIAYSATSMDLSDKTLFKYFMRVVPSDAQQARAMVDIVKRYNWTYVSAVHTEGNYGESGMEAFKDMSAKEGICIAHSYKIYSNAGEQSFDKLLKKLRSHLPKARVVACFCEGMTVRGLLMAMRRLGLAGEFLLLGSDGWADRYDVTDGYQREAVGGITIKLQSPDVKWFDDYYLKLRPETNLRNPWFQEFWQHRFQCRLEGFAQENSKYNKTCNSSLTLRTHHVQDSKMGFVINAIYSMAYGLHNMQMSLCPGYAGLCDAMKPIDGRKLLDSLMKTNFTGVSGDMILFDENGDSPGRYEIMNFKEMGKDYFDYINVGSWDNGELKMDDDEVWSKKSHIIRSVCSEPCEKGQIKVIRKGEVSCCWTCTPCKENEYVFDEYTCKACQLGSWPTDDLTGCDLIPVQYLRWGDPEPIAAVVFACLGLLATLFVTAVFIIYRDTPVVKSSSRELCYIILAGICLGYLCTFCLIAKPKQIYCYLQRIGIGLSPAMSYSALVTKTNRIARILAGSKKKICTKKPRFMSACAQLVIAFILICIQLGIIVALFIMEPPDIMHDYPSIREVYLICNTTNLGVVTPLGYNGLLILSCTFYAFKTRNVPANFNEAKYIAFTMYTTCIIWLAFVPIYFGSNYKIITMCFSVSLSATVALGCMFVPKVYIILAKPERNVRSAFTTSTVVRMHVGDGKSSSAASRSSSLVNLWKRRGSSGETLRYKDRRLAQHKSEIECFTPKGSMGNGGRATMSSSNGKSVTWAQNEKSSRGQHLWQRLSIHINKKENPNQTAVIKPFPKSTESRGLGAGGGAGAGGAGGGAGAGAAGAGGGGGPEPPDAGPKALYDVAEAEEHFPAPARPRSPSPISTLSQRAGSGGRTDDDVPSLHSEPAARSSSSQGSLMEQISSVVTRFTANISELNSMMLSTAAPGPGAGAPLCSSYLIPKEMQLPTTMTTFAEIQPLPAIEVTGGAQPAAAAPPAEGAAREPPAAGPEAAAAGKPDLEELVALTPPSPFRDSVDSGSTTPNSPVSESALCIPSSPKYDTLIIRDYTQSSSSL
- assayName: [3H]-MPEP mGluR5 receptor binding assay (pig brain homogenate)
- conditionDetails: 10 μM compound, 5 nM [3H]-MPEP, read-out: % Inhibition of mGluR5 Receptor (pig) [^3H]-MPEP Bond at 10 μM
reportedProperty: inhibition at 10 µM (%)

>>> quantitativeresult("O=C(c1ccccc1O)N(Cc1cccc(-c2ccc3ncnc(NC4CC4)c3c2)c1)C1CC1 [Example 156]")
90
>>> quantitativeresult("Cc1cc2ncnc(NC3CC3)c2cc1-c1cccc(CN(C(=O)c2cccc(C(F)(F)F)c2)C2CC2)c1 [Example 676]")
75
>>> quantitativeresult("COc1ccc(C(=O)N(Cc2cc(-c3ccc4nc(C)nc(NC5CC5)c4c3)ccc2F)C2CC2)cc1OC [Example 558]")
42
>>> quantitativeresult("Cc1ccc(C(=O)N(C)Cc2cccc(-c3ccc4ncnc(NC5CC5)c4c3)c2)cc1 [Example 175]")
85
>>> quantitativeresult("Cc1cc2ncnc(NC3CC3)c2cc1-c1cccc(CN(C(=O)C2CCCCC2)C2CC2)c1 [Example 653]")
66
>>> quantitativeresult("CC(C)S(=O)(=O)N(Cc1cc(-c2ccc3ncnc(NC4CC4)c3c2)ccc1F)C1CC1 [Example 429]")
92
>>> quantitativeresult("O=C(c1cccc(F)c1)N(Cc1cccc(-c2cc(F)c3ncnc(NC4CC4)c3c2)c1)C1CC1 [Example 727]")
93
>>> quantitativeresult("Cc1cc(C(=O)N(Cc2cccc(-c3cc(F)c4ncnc(NC5CC5)c4c3)c2)C2CC2)n(C)n1 [Example 760]")
93

* * *

- systemTested: UniProtKB P41594
- Sequence (P41594 21-1212): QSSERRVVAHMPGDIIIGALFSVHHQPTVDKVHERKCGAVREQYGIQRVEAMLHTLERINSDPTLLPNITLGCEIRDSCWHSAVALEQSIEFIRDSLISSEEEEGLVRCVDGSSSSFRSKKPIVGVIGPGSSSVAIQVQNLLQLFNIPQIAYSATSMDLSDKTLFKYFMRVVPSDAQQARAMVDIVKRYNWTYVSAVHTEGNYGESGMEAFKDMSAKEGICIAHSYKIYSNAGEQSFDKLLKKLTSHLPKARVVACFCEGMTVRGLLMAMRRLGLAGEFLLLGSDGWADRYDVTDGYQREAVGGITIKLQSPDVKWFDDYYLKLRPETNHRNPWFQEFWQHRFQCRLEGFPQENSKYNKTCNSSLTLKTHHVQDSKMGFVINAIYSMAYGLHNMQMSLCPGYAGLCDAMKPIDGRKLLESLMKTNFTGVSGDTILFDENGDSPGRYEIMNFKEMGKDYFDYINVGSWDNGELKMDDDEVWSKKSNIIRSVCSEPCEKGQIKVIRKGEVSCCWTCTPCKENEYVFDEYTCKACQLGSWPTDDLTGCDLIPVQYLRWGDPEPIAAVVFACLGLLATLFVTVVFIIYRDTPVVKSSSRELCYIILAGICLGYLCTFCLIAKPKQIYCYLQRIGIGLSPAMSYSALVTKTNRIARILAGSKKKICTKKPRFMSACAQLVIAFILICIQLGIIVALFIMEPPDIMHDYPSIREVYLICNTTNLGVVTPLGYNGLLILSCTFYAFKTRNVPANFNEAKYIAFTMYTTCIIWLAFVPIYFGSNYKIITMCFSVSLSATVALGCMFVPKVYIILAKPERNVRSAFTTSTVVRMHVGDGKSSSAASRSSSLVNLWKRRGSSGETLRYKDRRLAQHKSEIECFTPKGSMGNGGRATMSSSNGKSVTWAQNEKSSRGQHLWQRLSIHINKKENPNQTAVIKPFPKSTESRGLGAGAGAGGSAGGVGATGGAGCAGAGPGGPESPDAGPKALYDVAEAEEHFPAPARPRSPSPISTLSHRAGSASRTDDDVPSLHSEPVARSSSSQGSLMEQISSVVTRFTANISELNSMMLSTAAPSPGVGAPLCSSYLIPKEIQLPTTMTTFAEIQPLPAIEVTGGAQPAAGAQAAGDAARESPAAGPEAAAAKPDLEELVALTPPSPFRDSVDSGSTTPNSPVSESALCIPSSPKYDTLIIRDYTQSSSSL
- assayName: Functional Ca2+ influx assay in CHO-hmGluR5 cells (DHPG 10 μM, FLIPR)
pKi: −log10 of the molar value.
Note to self: values exactly at 8 are satisfied. So pKi at or above 8 is satisfied, below is not satisfied.

>>> cat("COc1ccc(CN(C2CC2)S(C)(=O)=O)cc1-c1ccc2ncnc(NC3CC3)c2c1 [Example 250]")
"satisfied"
>>> cat("CC1CC(=O)N(Cc2cccc(-c3ccc4ncnc(NC5CC5)c4c3)c2)C1=O (stereo not drawn) [Example 245]")
"satisfied"
>>> cat("COc1ccc(CN(C(C)=O)C2CC2)cc1-c1ccc2ncnc(NC3CC3)c2c1 [Example 261]")
"not satisfied"
>>> cat("CC(=O)N(Cc1cccc(-c2ccc3ncnc(NC4CC4)c3c2)c1)C(C)(C)C [Example 202]")
"satisfied"
>>> cat("CCOC(=O)N(Cc1cccc(-c2ccc3ncnc(NC4CC4)c3c2)c1)C1CC1 [Example 875]")
"not satisfied"
>>> cat("CC(C)(C)Nc1ncnc2ccc(-c3ccc(F)c(CN(C(=O)CC#N)C4CC4)c3)cc12 [Example 201]")
"satisfied"

* * *

- systemTested: mGluR5 receptor (Sus scrofa)
- Construct: 450 μg of protein from brain homogenate with 5 nM ^3[H]-MPEP; from tissue; host or cells: pig brain halves without medulla, cerebellum and pons
- assayName: [3H]-MPEP mGluR5 receptor binding assay (pig brain homogenate)
- conditionDetails: 10 μM compound, 5 nM [3H]-MPEP, read-out: % Inhibition of mGluR5 Receptor (pig) [^3H]-MPEP Bond at 10 μM
reportedProperty: inhibition at 10 µM (%)

>>> quantitativeresult("CC(C)S(=O)(=O)N(Cc1cccc(-c2cc(F)c3ncnc(NC4CC4)c3c2)c1)C1CC1")
71
>>> quantitativeresult("O=C(c1cccc(F)c1)N(Cc1cc(-c2ccc3ncnc(NC4CC4)c3c2)ccn1)C1CC1")
73
>>> quantitativeresult("O=S(=O)(Cc1ccccc1)N(Cc1cc(-c2ccc3ncnc(NC4CC4)c3c2)ccn1)C1CC1")
92
>>> quantitativeresult("O=C(c1ccccn1)N(Cc1cccc(-c2ccc3ncnc(NCCc4ccccc4)c3c2)c1)C1CC1")
52
>>> quantitativeresult("O=C(c1cccc(C(F)(F)F)c1)N(Cc1cc(-c2ccc3ncnc(NC4CC4)c3c2)ccc1F)C1CC1")
77
>>> quantitativeresult("O=C(CCc1ccccc1)N(Cc1cc(-c2ccc3ncnc(NC4CC4)c3c2)ccc1F)C1CC1")
93
>>> quantitativeresult("Cc1cc2ncnc(NC3CC3)c2cc1-c1cccc(CN(C2CC2)S(=O)(=O)C(C)C)c1")
86
>>> quantitativeresult("COc1ccc(C(=O)N(Cc2cc(-c3ccc4ncnc(NC(C)(C)C)c4c3)ccc2F)C2CC2)cc1OC")
71
>>> quantitativeresult("O=C(c1cccnc1)N(Cc1cc(-c2ccc3ncnc(NC4CC4)c3c2)ccc1F)C1CC1")
94
>>> quantitativeresult("CC(C)Nc1ncnc2ccc(-c3cccc(CN(Cc4ccccc4)C(=O)c4ccco4)c3)cc12")
32
>>> quantitativeresult("O=C(c1cccc(C(F)(F)F)c1)N(Cc1cc(-c2ccc3ncnc(NC4CC4)c3c2)ccc1Cl)C1CC1")
63
>>> quantitativeresult("O=C(c1cccs1)N(Cc1cccc(-c2ccc3ncnc(NC4CC4)c3c2)c1)C1CC1")
84
>>> quantitativeresult("O=S(=O)(Cc1ccccc1)N(Cc1cc(-c2ccc3ncnc(NC4CC4)c3c2)ccc1Cl)C1CC1")
80
>>> quantitativeresult("COc1ccc(C(=O)N(Cc2cccc(-c3ccc4ncnc(N5CCCC5)c4c3)c2)C2CC2)cc1")
51
>>> quantitativeresult("O=C(c1cc(Cl)cc(Cl)c1)N(Cc1cc(-c2ccc3ncnc(NC4CC4)c3c2)ccc1Cl)C1CC1")
52
>>> quantitativeresult("CC(C)(C)OC(=O)NCc1cccc(-c2ccc3ncnc(NC4CC4)c3c2)c1")
0
